TARGET OR TEST SYSTEM: PDE5A1 (Mus musculus)
Construct: gene Pde5a
EXPERIMENT NOTES: biochemical
PARAMETER MEASURED: IC50 (nM)

> print(dat)
                                   compound  target.or.test.system  unit.of.measure  measured
1  CCCc1nn(C)c2c(=O)[nH]c(-c3cc(S(=O)(=O)N4CCN(C)CC4)ccc3OCC)nc12 [Sildenafil]  PDE5A1 (Mus musculus)               nM       4.7
